assay: Apparent passive permeability of the compound in presence of […]; assay type: physicochemical; conditions: not told
property: Papp (×10⁻⁶ cm/s)

The examples below pair each entry with its known result.
>>> testvalue("C[C@H](c1cc(F)cc(F)c1)N(CC(=O)Nc1ccc2c(c1)C[C@@]1(C2)C(=O)Nc2ncccc21)C(=O)C(C)(C)C")
26
>>> testvalue("C[C@H](c1cc(F)cc(F)c1)N(C/C=C/c1cnc2c(c1)C[C@@]1(C2)C(=O)Nc2ncccc21)C(=O)C1(C(F)(F)F)CC1")
21
>>> testvalue("Cc1ccsc1C(=O)N(C/C=C/c1cnc2c(c1)C[C@@]1(C2)C(=O)Nc2ncccc21)[C@H](C)c1cc(F)cc(F)c1")
17
>>> testvalue("C[C@H](c1cc(F)cc(F)c1)N(CCCc1cnc2c(c1)C[C@@]1(C2)C(=O)Nc2ncccc21)C(=O)C(C)(C)C")
26
>>> testvalue("C[C@H](c1cc(F)cc(F)c1)N(C/C=C/c1cnc2c(c1)C[C@@]1(C2)C(=O)Nc2ncccc21)C(=O)c1nccn1C")
28
>>> testvalue("Cc1cc(C(=O)N(C/C=C/c2ccc3c(c2)C[C@@]2(C3)C(=O)Nc3ncccc32)[C@H](C)c2cc(F)cc(F)c2)n(C)n1")
17

P: C[C@H](c1cc(F)cc(F)c1)N(Cc1cnc2cc3c(cc2c1)C[C@@]1(C3)C(=O)Nc2ncccc21)C(=O)C(C)(C)C
Q: C[C@H](c1cc(F)cc(F)c1)N(C/C=C/c1ccc2c(c1)C[C@@]1(C2)C(=O)Nc2ncccc21)C(=O)[C@@H]1CCCN1C
// which entry has the larger Papp value, P or Q ? Write the label of whichever entry you select.
Q
(Q: 33 ×10⁻⁶ cm/s, P: 20 ×10⁻⁶ cm/s)
